- targetOfAssay: T1, human GPC3-his tag protein (human, UniProt P51654 25-559, limits assumed)
- T1 construct: recombinant soluble antigen used as analyte in all Biacore runs; also called recombinant GPC3 protein; rhGPC3-His; not shown: His tag
- experimentSummary: SPR Biacore 8K, mAb captured, affinity ranking

>  <binder>
Hu 52H5D3B8-11 (antibody, V domains shown, humanized 52H5D3B8; also called 52H5D3B8 VH5 + VL0) VH: EVQLVQSGAEVKKPGASVKVSCKASGYTFTDYEMHWVRQAPGQGLEWIGAIHPGSGGTAYNQKFKGKATLTADKSISTAYMELSRLRSDDTAVYYCTRFYSYAYWGQGTLVTVSS VL: DVVMTQTPLSLSVTPGQPASISCRSSQSLVHSNGNTYLQWYLQKPGQSPQLLIYKVSNRFSGVPDRFSGSGSGTDFTLKISRVEAEDVGVYYCSQSIHVPYTFGGGTKVEIK

>  <kon [M⁻¹ s⁻¹]>
295000

$$$$
>  <binder>
Hu 52H5D3B8-5 (antibody, V domains shown, humanized 52H5D3B8; also called 52H5D3B8 VH2 + VL0) VH: EVQLVQSGAEVKKPGASVKVSCKASGYTFTDYEMHWVRQAPGQGLEWMGAIHPGSGGTAYNQKFKGRVTMTADTSISTAYMELSRLRSDDTAVYYCTRFYSYAYWGQGTLVTVSS VL: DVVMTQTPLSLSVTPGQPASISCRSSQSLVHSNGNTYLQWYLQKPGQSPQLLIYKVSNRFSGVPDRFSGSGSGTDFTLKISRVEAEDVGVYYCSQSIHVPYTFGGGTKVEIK

>  <kon [M⁻¹ s⁻¹]>
319000

$$$$
>  <binder>
Hu 52H5D3B8-4 (antibody, V domains shown, humanized 52H5D3B8; also called 52H5D3B8 VH1 + VL1) VH: EVQLVQSGAEVKKPGASVKVSCKASGYTFTDYEMHWVRQAPGQGLEWMGAIHPGSGGTAYNQKFKGRVTMTRDTSISTAYMELSRLRSDDTAVYYCTRFYSYAYWGQGTLVTVSS VL: DVVMTQTPLSLSVTPGQPASISCRSSQSLVHSNGNTYLQWYLQKPGQSPQLLIYKVSNRFSGVPDRFSGSGSGTDFTLKISRVEAEDVGVYFCSQSIHVPYTFGGGTKVEIK

>  <kon [M⁻¹ s⁻¹]>
357000

$$$$
